For each entry below, report its MIC value.
# Tested on: Staphylococcus aureus
# protocol: Antibacterial activity against Staphylococcus aureus ATCC 25365 assessed as growth inhibition after 18 hr by broth microdilution method
# Format: functional
# measurementContext: ATCC 25365, 18 h
One number for each entry, in µg/mL.

entrySmiles | measureUnit | MIC
COc1ccc(C(=O)CSc2nnc(N3CCN(c4cc5c(cc4F)c(=O)c(C(=O)O)cn5C4CC4)CC3)s2)cc1 | µg/mL | 2
Cc1ccc(C(=O)CSc2nnc(N3CCN(c4cc5c(cc4F)c(=O)c(C(=O)O)cn5C4CC4)CC3)s2)cc1 | µg/mL | 8
CCn1cc(C(=O)O)c(=O)c2cc(F)c(N3CCN(c4nnc(SCC(=O)c5ccc(F)cc5)s4)CC3)cc21 | µg/mL | 4

Go through the list and state MIC for each entry.
1. O=C(CSc1nnc(N2CCN(c3cc4c(cc3F)c(=O)c(C(=O)O)cn4C3CC3)CC2)s1)c1ccc(Cl)cc1
2. O=C(CSc1nnc(N2CCN(c3cc4c(cc3F)c(=O)c(C(=O)O)cn4C3CC3)CC2)s1)c1ccc([N+](=O)[O-])cc1

[out]
4
1

// each molecule listed below needs its MIC
1. CCn1cc(C(=O)O)c(=O)c2cc(F)c(N3CCN(c4nnc(SCC(=O)c5ccc(C)cc5)s4)CC3)cc21
2. O=C(CSc1nnc(N2CCN(c3cc4c(cc3F)c(=O)c(C(=O)O)cn4C3CC3)CC2)s1)c1ccc(Br)cc1
3. CCn1cc(C(=O)O)c(=O)c2cc(F)c(N3CCN(c4nnc(SCC(=O)c5ccc(OC)cc5)s4)CC3)cc21

[out]
1. 8
2. 8
3. 2
